Biological target: Cbl-b (Homo sapiens)
Construct: Cbl-b-HiBit KI Jurkat Cells were purchased from Promega; host or cells: Cbl-b-HiBiT knock-in Jurkat cells
Sequence (Q13191 whole entry): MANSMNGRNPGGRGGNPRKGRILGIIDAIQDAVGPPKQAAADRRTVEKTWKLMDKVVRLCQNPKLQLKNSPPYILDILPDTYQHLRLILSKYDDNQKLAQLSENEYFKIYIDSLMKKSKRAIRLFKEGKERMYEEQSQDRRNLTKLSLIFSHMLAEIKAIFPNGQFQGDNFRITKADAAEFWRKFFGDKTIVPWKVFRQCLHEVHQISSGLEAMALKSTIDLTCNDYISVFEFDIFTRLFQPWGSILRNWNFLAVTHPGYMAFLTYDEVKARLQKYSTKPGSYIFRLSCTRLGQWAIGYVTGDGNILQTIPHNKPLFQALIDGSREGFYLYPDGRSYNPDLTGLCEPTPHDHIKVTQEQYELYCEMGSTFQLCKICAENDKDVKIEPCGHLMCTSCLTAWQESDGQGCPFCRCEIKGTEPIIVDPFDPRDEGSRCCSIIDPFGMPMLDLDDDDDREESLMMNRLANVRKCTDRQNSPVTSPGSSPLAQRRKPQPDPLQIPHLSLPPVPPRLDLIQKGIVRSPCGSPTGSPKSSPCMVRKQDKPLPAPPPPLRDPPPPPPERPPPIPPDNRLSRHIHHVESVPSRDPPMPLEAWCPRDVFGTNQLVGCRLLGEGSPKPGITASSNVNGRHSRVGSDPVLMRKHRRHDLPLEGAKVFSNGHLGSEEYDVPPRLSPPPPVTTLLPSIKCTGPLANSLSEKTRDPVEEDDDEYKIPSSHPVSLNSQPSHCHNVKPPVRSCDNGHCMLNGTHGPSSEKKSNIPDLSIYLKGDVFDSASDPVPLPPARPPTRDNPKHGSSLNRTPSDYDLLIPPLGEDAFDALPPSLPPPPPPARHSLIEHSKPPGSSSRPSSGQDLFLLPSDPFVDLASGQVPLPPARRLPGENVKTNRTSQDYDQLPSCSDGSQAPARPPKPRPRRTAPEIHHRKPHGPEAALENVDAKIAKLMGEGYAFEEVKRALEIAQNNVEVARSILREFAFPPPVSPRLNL
Test: Cbl-b Degradation Method A (FACS, anti-Cbl-b antibody staining)
Format: cell-based
Conditions: Cbl-b-HiBit KI Jurkat Cells, incubated at least 20 hours; half maximal degradation; read-out: Cbl-b Degredation Method A IC50
Description: Cbl-b Degradation Method A Cbl-b-HiBit KI Jurkat Cells were purchased from Promega, and cell media consisted of RPMI 1640 with 10% FBS and 1% pen/strep. […] The concentration of an exemplary compound that leads to half maximal degradation (DC50) as well as the maximum degradation observed (Dmax, conventionally expressed as a percentage of control) is shown below in Table 2.
assay-metric: DC50

Use the examples below as a reference point.
{"columns": ["compound", "DC50"],
 "data": [
  ["Cn1cnnc1CC1(c2cccc(N3Cc4c(cc(N5CCC(COCCOc6ccc7c(c6)C(=O)N(C6CCC(=O)NC6=O)C7=O)CC5)cc4C(F)(F)F)C3=O)c2)COC1 (stereo not drawn) [Example 15]", "50 to 500 nM"],
  ["CC(C)n1c(=O)n(C2CCC(=O)NC2=O)c2cccc(N3CCC(CN4CCC5(CC4)CN(c4cc6c(c(C(F)(F)F)c4)CN(c4cccc([C@]7(Cc8nncn8C)C[C@@H](C#N)C7)c4)C6=O)C5)CC3)c21 (stereo partly drawn) [Example 284]", "50 to 500 nM"],
  ["Cn1cnnc1CC1(c2cccc(N3Cc4c(cc(CN5CCC(N6CCN(CC7CCN(c8ccc9c(c8)C(=O)N(C8CCC(=O)NC8=O)C9=O)CC7)CC6)CC5)cc4C(F)(F)F)C3=O)c2)COC1 (stereo not drawn) [Example 103]", "> 500 nM"]
]}

Sample Cn1cnnc1CC1(c2cccc(N3Cc4c(cc(CN5CCC(CN6CCN(c7cccc8c7C(=O)N(C7CCC(=O)NC7=O)C8=O)CC6)CC5)cc4C(F)(F)F)C3=O)c2)COC1 (stereo not drawn) [Example 88] ; DC50 observed: > 500 nM

DC50 reported for this compound Cn1cnnc1CC1(c2cccc(N3Cc4c(cc(N5CCC6(CC5)CN(CC5CCN(c7ccc8c(c7)C(=O)N(C7CCC(=O)NC7=O)C8=O)CC5)C6)cc4C(F)(F)F)C3=O)c2)COC1 (stereo not drawn) [Example 135] : 50 to 500 nM

// Cn1cnnc1CC1(c2cccc(N3Cc4c(cc(CN5CCCC(CN6CCN(c7ccc8c(c7)C(=O)N(C7CCC(=O)NC7=O)C8=O)CC6)C5)cc4C(F)(F)F)C3=O)c2)COC1 (stereo not drawn) [Example 76] : DC50 value = > 500 nM
